experiment: Experiment 2: femoral vein samples of rats after IV Parent Compound A; assay type: in vivo, female Sprague Dawley rats; settings: female, Sprague-Dawley, rat, plasma (femoral vein), iv, 2.5 mg/kg, femoral vein plasma, 0.25 hr after IV Parent Compound A 2.5 mg/kg; individual rats; read-out: [Par. Cmp. A]
assay_endpoint: concentration at 0.25 h (ng/mL)
Record the value in ng/mL, omitting the unit from your answer.

QUERY: Requested field: concentration at 0.25 h. Item: O=C(NCc1cccnc1)Nc1ccc(OCCc2ccccc2-c2ccccc2)cc1
RESULT: 1610

----------
assay: Experiment 2: femoral vein samples of rats after IV Parent Compound A; type: in vivo, female Sprague Dawley rats; conditions: female, Sprague-Dawley, rat, plasma (femoral vein), iv, 2.5 mg/kg, femoral vein plasma, 0.5 hr after IV Parent Compound A 2.5 mg/kg; read-out: Median [Par. Cmp. A]
assay_endpoint: concentration at 0.5 h (ng/mL)
Record the value in ng/mL, omitting the unit from your answer.

QUERY: Requested field: concentration at 0.5 h. Item: O=C(NCc1cccnc1)Nc1ccc(OCCc2ccccc2-c2ccccc2)cc1 [Parent Compound A]
RESULT: 720

Values were extracted from patent US20150344426A1.
